# SYSTEM NAME: mouse SMO^D473H (Mus musculus, UniProt P56726, D477H)
# Construct: expressed in transfected cells
# Sequence (P56726 33-793 D477H): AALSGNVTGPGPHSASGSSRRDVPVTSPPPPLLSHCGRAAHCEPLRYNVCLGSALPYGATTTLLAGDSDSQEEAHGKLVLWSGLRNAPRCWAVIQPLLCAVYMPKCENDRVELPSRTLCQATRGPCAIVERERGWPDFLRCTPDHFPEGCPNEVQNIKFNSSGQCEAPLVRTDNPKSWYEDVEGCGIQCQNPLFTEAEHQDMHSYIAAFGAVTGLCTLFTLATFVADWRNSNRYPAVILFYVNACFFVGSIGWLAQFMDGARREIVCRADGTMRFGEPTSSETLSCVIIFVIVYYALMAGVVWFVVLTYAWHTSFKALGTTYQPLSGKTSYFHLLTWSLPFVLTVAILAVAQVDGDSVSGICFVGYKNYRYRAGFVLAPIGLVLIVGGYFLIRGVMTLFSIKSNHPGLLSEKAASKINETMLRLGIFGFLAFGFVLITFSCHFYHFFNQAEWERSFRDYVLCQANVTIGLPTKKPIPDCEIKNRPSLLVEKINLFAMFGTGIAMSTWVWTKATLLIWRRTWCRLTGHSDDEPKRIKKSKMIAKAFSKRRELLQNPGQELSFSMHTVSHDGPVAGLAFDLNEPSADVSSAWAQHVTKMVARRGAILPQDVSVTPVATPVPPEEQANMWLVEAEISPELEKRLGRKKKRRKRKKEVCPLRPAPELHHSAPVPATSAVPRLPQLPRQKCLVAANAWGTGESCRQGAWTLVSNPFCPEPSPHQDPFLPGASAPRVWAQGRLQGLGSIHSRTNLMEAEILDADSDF
# PROTOCOL SUMMARY: Mouse assay: Gli1 qPCR in MEF cells stably expressing mouse SMO D473H; note: test concentration or dose not given here
# Type: cell-based
# TEST CONDITIONS: mSHh-treated, 24 hours, percentage Gli1 inhibition
MEASUREMENT NAME: Mouse D473H % Inh (%)

* O=C(Nc1ccc(-c2nc(Cc3cccc(F)c3)n[nH]2)cc1)c1cccc(CN2CCS(=O)(=O)CC2)c1 | 96.8
* O=C(Nc1ccc(-c2cc(C3CC3)no2)cc1)c1cccc(CN2CCS(=O)(=O)CC2)c1 | 99.3
* COc1ccc(-c2n[nH]c(-c3ccc(NC(=O)c4cccc(CN5CCS(=O)(=O)CC5)c4)cc3)n2)cc1 | 97.5
* O=C(Nc1ccc(-c2noc(Cc3ccc(Cl)cc3)n2)cc1)c1cccc(CN2CCS(=O)(=O)CC2)c1 | 99.2
* O=C(Nc1ccc(-c2nc(C3CC3)n[nH]2)cc1)c1ccc(Cl)c(CN2CCS(=O)(=O)CC2)c1 | 94.4
* O=C(Nc1ccc(-c2noc(Cc3ccc(F)cc3)n2)cc1)c1cccc(CN2CCS(=O)(=O)CC2)c1 | 97.4
* CC1(C)CN(Cc2cccc(C(=O)Nc3ccc(-c4nc(C5CC5)n[nH]4)cc3)c2)CCS1(=O)=O | 99.7

All figures here come from patent US20250136559A1.
